The origin of these recorded values is patent US20100273203A1.

molecular target: UGT1A8 (Homo sapiens); details: glucuronidation; racemic OHWars
Sequence (Q9HAW9 26-530): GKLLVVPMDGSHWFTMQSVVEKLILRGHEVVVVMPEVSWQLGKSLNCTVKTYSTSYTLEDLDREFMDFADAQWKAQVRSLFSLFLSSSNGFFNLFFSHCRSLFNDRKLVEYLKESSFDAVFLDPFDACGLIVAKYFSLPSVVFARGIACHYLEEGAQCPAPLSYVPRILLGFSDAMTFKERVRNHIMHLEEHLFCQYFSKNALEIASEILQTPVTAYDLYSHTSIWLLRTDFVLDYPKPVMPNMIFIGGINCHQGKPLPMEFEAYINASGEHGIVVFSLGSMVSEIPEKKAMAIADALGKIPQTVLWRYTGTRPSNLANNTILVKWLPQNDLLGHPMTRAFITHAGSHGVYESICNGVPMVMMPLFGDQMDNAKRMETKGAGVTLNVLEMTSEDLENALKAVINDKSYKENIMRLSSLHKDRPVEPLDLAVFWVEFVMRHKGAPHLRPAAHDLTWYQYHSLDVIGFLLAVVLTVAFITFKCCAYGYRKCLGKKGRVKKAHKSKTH
readout.type: Km (µM)

1. CC(=O)CC(c1ccccc1)c1c(O)c2cccc(O)c2oc1=O (stereo not shown) [8-OH-WAR, 8-hydroxywarfarin]: 206

----------
Reported % R values follow for various compounds
assay: LC-MS/MS urinary metabolic profile of patients receiving warfarin; details: patient F85; urine
readout.type: % R (%)

1) CC(=O)CC(c1ccccc1)c1c(O)c2cccc(O)c2oc1=O (stereo not shown) [8-OH-WAR, 8-hydroxywarfarin]: 98
2) CC(=O)CC(c1ccccc1)c1c(O)c2ccc(O)cc2oc1=O (stereo not shown) [7-OH-WAR, 7-hydroxywarfarin]: 38
3) CC(=O)CC(c1ccc(O)cc1)c1c(O)c2ccccc2oc1=O (stereo not shown) [4′-OH-WAR, 4′-hydroxywarfarin]: 25
4) CC(=O)CC(c1ccccc1)c1c(O)c2cc(O)ccc2oc1=O (stereo not shown) [6-OH-WAR, 6-hydroxywarfarin]: 69
